Numbers sourced from ChEMBL document CHEMBL4610021.

Biological target: Toll-like receptor 7 (Mus musculus, UniProt P58681)
Sequence (P58681 whole entry): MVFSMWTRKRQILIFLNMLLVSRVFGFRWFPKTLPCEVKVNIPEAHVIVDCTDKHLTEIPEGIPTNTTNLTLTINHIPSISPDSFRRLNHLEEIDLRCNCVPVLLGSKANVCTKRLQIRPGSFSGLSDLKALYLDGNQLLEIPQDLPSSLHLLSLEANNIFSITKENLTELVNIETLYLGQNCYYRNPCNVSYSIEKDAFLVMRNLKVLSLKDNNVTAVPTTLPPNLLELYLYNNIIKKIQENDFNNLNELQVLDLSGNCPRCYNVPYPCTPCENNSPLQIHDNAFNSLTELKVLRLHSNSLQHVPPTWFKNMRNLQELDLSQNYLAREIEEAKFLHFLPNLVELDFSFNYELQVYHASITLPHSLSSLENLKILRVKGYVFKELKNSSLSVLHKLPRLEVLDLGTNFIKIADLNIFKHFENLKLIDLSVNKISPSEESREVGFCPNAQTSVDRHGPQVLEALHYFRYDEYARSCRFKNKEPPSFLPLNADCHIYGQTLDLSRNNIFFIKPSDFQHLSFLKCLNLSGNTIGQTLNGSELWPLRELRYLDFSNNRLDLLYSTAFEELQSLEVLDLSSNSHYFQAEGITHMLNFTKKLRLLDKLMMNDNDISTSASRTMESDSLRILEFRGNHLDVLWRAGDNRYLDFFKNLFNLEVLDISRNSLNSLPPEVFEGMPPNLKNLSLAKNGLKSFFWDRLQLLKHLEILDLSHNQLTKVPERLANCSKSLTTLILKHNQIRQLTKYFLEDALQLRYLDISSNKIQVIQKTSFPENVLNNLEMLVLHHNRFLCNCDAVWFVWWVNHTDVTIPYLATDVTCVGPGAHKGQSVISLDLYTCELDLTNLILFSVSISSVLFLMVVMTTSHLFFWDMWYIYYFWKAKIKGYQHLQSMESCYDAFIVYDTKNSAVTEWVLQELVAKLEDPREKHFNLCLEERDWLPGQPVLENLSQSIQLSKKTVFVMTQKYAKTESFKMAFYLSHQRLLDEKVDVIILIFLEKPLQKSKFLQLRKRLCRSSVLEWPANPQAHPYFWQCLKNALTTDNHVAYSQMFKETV
Experiment: Agonist activity at TLR7 in mouse BMDC cells assessed as immunostimulatory activity by measuring increase in IL6 secretion incubated for 18 hrs by ELISA
Assay type: cell-based
quantity: EC50 (µM)
Quick note: give the figure in µM, leave out the unit.

Tell me measured EC50 for COCCOc1nc(N)c2nc(O)n(Cc3ccc(C(=O)NC[C@H]4O[C@@H]5O[C@H]6[C@H](O)[C@@H](O)[C@@H](O[C@H]7[C@H](O)[C@@H](O)[C@@H](O[C@H]8[C@H](O)[C@@H](O)[C@@H](O[C@H]9[C@H](O)[C@@H](O)[C@@H](O[C@H]%10[C@H](O)[C@@H](O)[C@@H](O[C@H]%11[C@H](O)[C@@H](O)[C@@H](O[C@H]4[C@H](O)[C@H]5O)O[C@@H]%11CO)O[C@@H]%10CO)O[C@@H]9CO)O[C@@H]8CO)O[C@@H]7CO)O[C@@H]6CO)cc3)c2n1 please.
0.153
